For each record, write down the corresponding percent inhibition of viability.
test system: normal primary NK cells, pool 3 (3 donors) (IL-2 2.5 ng/mL); test: percent inhibition of viability; higher = more inhibition; conditions: 72 h; 100 nM
Value expressed in %; do not type the unit.

So what does the record say about percent inhibition of viability for Cn1c(=O)c(F)c(Nc2ccc(I)cc2F)c2c(=O)n(C[C@@H](O)CO)cnc21 [TAK-733] (max concentration tested 1000 nM) ?
2.73

Same thing, different compound: C[C@@H]1C[C@H]2O[C@@H]2/C=C\C=C\C(=O)Cc2c(Cl)c(O)cc(O)c2C(=O)O1 [Radicicol] (max concentration tested 10000 nM)
38

Same thing, different compound: CCCOc1ccn2c(C(C)=O)cc(-c3ccccc3S(C)(=O)=O)c2c1 [GSK2801] (max concentration tested 10000 nM)
-5.15

Same thing, different compound: O=C(O)c1ccc(O)c2ncccc12 [IOX-1] (max concentration tested 100000 nM)
-4.61

Same thing, different compound: COc1cc2c(cc1O)CC[C@@H]1[C@@H]2CC[C@]2(C)[C@@H](O)CC[C@@H]12 [2-methoxyestradiol] (max concentration tested 10000 nM)
-8.74

Same thing, different compound: O=C(O)CC1CC(c2ccccc2)=NO1 (stereo not drawn) [VGX-1027] (max concentration tested 10000 nM)
5.21

Same thing, different compound: COc1cc(O)c2c(c1)/C=C/C[C@H](O)[C@H](O)C(=O)/C=C\C[C@H](C)OC2=O [(5Z)-7-Oxozeaenol] (max concentration tested 10000 nM)
4.11

Same thing, different compound: COc1cc2c(NC3CCN(C(C)C)CC3)nc(C3CCCCC3)nc2cc1OCCCN1CCCC1 [UNC0638] (max concentration tested 10000 nM)
2.47

====

tested on: KHYG-1 (IL-2 2.5 ng/mL); experiment: percent inhibition of viability; higher = more inhibition; details: 72 h; 10000 nM
For each record, write down the corresponding percent inhibition of viability.
Value expressed in %; do not type the unit.

So what does the record say about percent inhibition of viability for COc1cc2c(cc1O)CC[C@@H]1[C@@H]2CC[C@]2(C)[C@@H](O)CC[C@@H]12 [2-methoxyestradiol] (max concentration tested 10000 nM) ?
97.9

Same thing, different molecule: O=C(O)CC1CC(c2ccccc2)=NO1 (centres undefined) [VGX-1027] (max concentration tested 10000 nM)
20

Same thing, different molecule: COc1cc([C@@H]2c3cc4c(cc3[C@@H](O[C@@H]3O[C@@H]5CO[C@@H](c6cccs6)O[C@H]5[C@H](O)[C@H]3O)[C@H]3COC(=O)[C@H]23)OCO4)cc(OC)c1O [Teniposide] (max concentration tested 10000 nM)
94.4

Same thing, different molecule: COC(=O)c1ccc2c(c1)NC(=O)/C2=C(\Nc1ccc(N(C)C(=O)CN2CCN(C)CC2)cc1)c1ccccc1 [Nintedanib] (max concentration tested 10000 nM)
99.6

====

system: normal primary NK cells, pool 1 (3 donors), resting (IL-2 0 ng/mL); assay: percent inhibition of viability; higher = more inhibition; details: 72 h; 10 nM
For each record, write down the corresponding percent inhibition of viability.
Value expressed in %; do not type the unit.

So what does the record say about percent inhibition of viability for C[C@@H]1C[C@H]2O[C@@H]2/C=C\C=C\C(=O)Cc2c(Cl)c(O)cc(O)c2C(=O)O1 [Radicicol] (max concentration tested 10000 nM) ?
-3.46

Same thing, different molecule: Cn1cc(C2=Nc3cc(NC(=O)C(N)C4CCCCC4)cc4c3C2=CNNC4=O)cn1 (stereo unspecified) (max concentration tested 10000 nM)
-6.26

Same thing, different molecule: COC(=O)c1ccc2c(c1)NC(=O)/C2=C(\Nc1ccc(N(C)C(=O)CN2CCN(C)CC2)cc1)c1ccccc1 [Nintedanib] (max concentration tested 10000 nM)
-15.9

Same thing, different molecule: FC(F)(F)c1ccc(/C=C/c2nc(COc3ccc(CCCCn4ccnn4)cc3)co2)cc1 [Mubritinib] (max concentration tested 1000 nM)
28.5

Same thing, different molecule: COC(=O)C[C@](O)(CCCC(C)(C)O)C(=O)O[C@@H]1C(OC)=C[C@]23CCCN2CCc2cc4c(cc2[C@H]13)OCO4 [Omacetaxine] (max concentration tested 10000 nM)
89.8

Same thing, different molecule: CN(C)C(=O)c1cc2cnc(Nc3ccc(N4CCNCC4)cn3)nc2n1C1CCCC1 [NVP-LEE011] (max concentration tested 10000 nM)
12.1

Same thing, different molecule: CCS(=O)(=O)c1cccc(-c2cc(C(=O)NC3CCN(C)CC3)c(C)c3[nH]c4ncc(C)cc4c23)c1 [TAK-901] (max concentration tested 1000 nM)
9.75

Same thing, different molecule: CCc1c2c(nc3ccc(OC(=O)N4CCC(N5CCCCC5)CC4)cc13)-c1cc3c(c(=O)n1C2)COC(=O)[C@]3(O)CC [Irinotecan] (max concentration tested 10000 nM)
9.89

Same thing, different molecule: CCCOc1ccn2c(C(C)=O)cc(-c3ccccc3S(C)(=O)=O)c2c1 [GSK2801] (max concentration tested 10000 nM)
-17.6

Same thing, different molecule: CCn1c(-c2nonc2N)nc2cnc(Oc3cccc(NC(=O)c4ccc(OCCN5CCOCC5)cc4)c3)cc21 (max concentration tested 10000 nM)
-15.8

Same thing, different molecule: CN(c1ccccc1CNc1nc(Nc2ccc3c(c2)CC(=O)N3)ncc1C(F)(F)F)S(C)(=O)=O (max concentration tested 10000 nM)
-18.3

Same thing, different molecule: CC(=O)c1c(C)c2cnc(Nc3ccc(N4CCNCC4)cn3)nc2n(C2CCCC2)c1=O [Palbociclib] (max concentration tested 10000 nM)
-17.5

Same thing, different molecule: CC(C)Oc1ccc(C(=O)N[C@H](CNC(=O)CN(C)C)Cc2ccc(-c3cn4cccc([C@H](C)O)c4n3)cc2)cc1Cl (max concentration tested 10000 nM)
-27

Same thing, different molecule: S=c1[nH]cnc2nc[nH]c12 [Mercaptopurine] (max concentration tested 10000 nM)
-18.3

Same thing, different molecule: CC[C@]1(O)C[C@@H]2CN(CCc3c([nH]c4ccccc34)[C@@](C(=O)OC)(c3cc4c(cc3OC)N(C)[C@H]3[C@@](O)(C(=O)OC)[C@H](OC(C)=O)[C@]5(CC)C=CCN6CC[C@]43[C@@H]65)C2)C1 [Vinblastine] (max concentration tested 1000 nM)
-2.96

Same thing, different molecule: C=CC[C@@H]1/C=C(\C)C[C@H](C)C[C@H](OC)[C@H]2O[C@@](O)(C(=O)C(=O)N3CCCC[C@H]3C(=O)O[C@H](/C(C)=C/[C@@H]3CC[C@@H](O)[C@H](OC)C3)[C@H](C)[C@@H](O)CC1=O)[C@H](C)C[C@@H]2OC [Tacrolimus] (max concentration tested 10000 nM)
-12.4

Same thing, different molecule: CCOC(=O)CCNc1cc(N2CCc3ccccc3CC2)nc(-c2ccccn2)n1 [GSK-J4] (max concentration tested 100000 nM)
-7.04

Same thing, different molecule: CN1CCN(c2cc(C(=O)Nc3ccc4c(c3)-c3c(c(C(N)=O)nn3-c3ccc(F)cc3)CC4)c(Cl)cn2)CC1 [PHA 408] (max concentration tested 10000 nM)
21.2

Same thing, different molecule: N#CC(c1ccnc(OCc2ccc(CN3CCOCC3)cc2)n1)c1nc2ccccc2s1 (stereo unspecified) [Bentamapimod] (max concentration tested 10000 nM)
7.45

Same thing, different molecule: COc1ccc(C[C@H](NC(=O)[C@H](C)NC(=O)CN2CCOCC2)C(=O)N[C@@H](Cc2ccccc2)C(=O)C2(C)CO2)cc1 (stereo in doubt) [ONX-0914] (max concentration tested 10000 nM)
21.3

Same thing, different molecule: Cn1cnc2c(F)c(Nc3ccc(Br)cc3Cl)c(C(=O)NOCCO)cc21 [Selumetinib] (max concentration tested 10000 nM)
-0.33

====

system: NK-YS (IL-2 2.5 ng/mL); test: drug sensitivity score (DSS) (DSS units); higher = more sensitive; extreme values may be limits of the assay; settings: 72 h
property: drug sensitivity score

So what does the record say about drug sensitivity score for CNC(=O)c1cc(Oc2ccc(NC(=O)Nc3cc(C(C)(C)C)nn3-c3ccc4ncccc4c3)c(F)c2)ccn1 [Rebastinib] (max concentration tested 1000 nM) ?
0

Same thing, different compound: CCc1nc(-c2cccc(C)c2)c(-c2ccnc(NC(=O)c3ccccc3)c2)s1 [TAK-715] (max concentration tested 10000 nM)
5.02

Same thing, different compound: C=CC(=O)Nc1cc2c(Nc3ccc(F)c(Cl)c3)ncnc2cc1OCCCN1CCOCC1 [Canertinib] (max concentration tested 10000 nM)
8.03

====

tested on: NKL (IL-2 2.5 ng/mL); test: percent inhibition of viability; higher = more inhibition; conditions: 72 h; 1000 nM
For each record, write down the corresponding percent inhibition of viability.
Value expressed in %; do not type the unit.

So what does the record say about percent inhibition of viability for CC(=O)c1c(C)c2cnc(Nc3ccc(N4CCNCC4)cn3)nc2n(C2CCCC2)c1=O [Palbociclib] (max concentration tested 10000 nM) ?
25

Same thing, different molecule: Cc1cc(C(C)Nc2ccccc2)c2nc(N3CCOCC3)cc(=O)n2c1 (stereo not drawn) [TGX-221] (max concentration tested 10000 nM)
15.5

Same thing, different molecule: COc1cc(O)c2c(c1)/C=C/C[C@H](O)[C@H](O)C(=O)/C=C\C[C@H](C)OC2=O [(5Z)-7-Oxozeaenol] (max concentration tested 10000 nM)
80

Same thing, different molecule: COc1cccc2c1C(=O)c1c(O)c3c(c(O)c1C2=O)C[C@@](O)(C(C)=O)C[C@@H]3O[C@H]1C[C@H](N)[C@H](O)[C@H](C)O1 [Daunorubicin] (max concentration tested 1000 nM)
109

Same thing, different molecule: COc1cc(Nc2ncc(F)c(Nc3ccc4c(n3)NC(=O)C(C)(C)O4)n2)cc(OC)c1OC [Tamatinib] (max concentration tested 10000 nM)
34.2

Same thing, different molecule: CCOC(=O)CCNc1cc(N2CCc3ccccc3CC2)nc(-c2ccccn2)n1 [GSK-J4] (max concentration tested 100000 nM)
-8.29

Same thing, different molecule: COc1cc(F)c(F)c(Nc2ccc(I)cc2F)c1NS(=O)(=O)C1(C[C@H](O)CO)CC1 [Refametinib] (max concentration tested 10000 nM)
74.4

Same thing, different molecule: CN(C)c1nc(N(C)C)nc(N(C)C)n1 [Altretamine] (max concentration tested 10000 nM)
1.45
